- testedSystem: T1, recombinant huIL-17A (SEQ ID NO: 76) (human, UniProt Q16552 24-155, limits assumed)
- T1 sequence: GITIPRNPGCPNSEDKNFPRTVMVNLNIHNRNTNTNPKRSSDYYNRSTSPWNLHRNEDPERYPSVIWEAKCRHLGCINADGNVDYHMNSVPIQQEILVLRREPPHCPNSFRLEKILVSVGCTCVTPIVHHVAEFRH
- experiment: cell-based or functional assay
property: IC50, huGROα secretion by BJ cells; rhuIL-17A (0.5 nM) (pM)
Numbers only; they are read as pM.

binder="XAB4 (antibody, human IgG1, kappa, V domains shown) VH: EVQLVESGGDLVQPGGSLRLSCAASGFTFSSYWMSWVRQAPGKGLEWVANIKQDGSEKYYVDSVKGRFTISRDNAKNSLYLQMNSLRAEDTAVYYCARDRGSLYYWGQGTLVTVSS VL: AIQLTQSPSSLSASVGDRVTITCRPSQGINWELAWYQQKPGKAPKLLIYDASSLEQGVPSRFSGSGSGTDFTLTISSLQPEDFATYYCQQFNSYPLTFGGGTKVEIKR" measureunit=pM measurednumber=440
binder="XAB2 (antibody, human IgG1, kappa, V domains shown, full IgG) VH: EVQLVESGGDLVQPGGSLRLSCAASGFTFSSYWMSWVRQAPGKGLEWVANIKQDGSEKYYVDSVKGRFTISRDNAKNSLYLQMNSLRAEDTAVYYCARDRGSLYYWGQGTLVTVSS VL: AIQLTQSPSSLSASVGDRVTITCRPSQVIISALAWYQQKPGKAPKLLIYDASSLEQGVPSRFSGSVSGTDFTLTISSLQPEDFATYYCQQFDSYPLTFGGGTKVEIKR" measureunit=pM measurednumber=400

Turning now to a further binder:
**Query** Fill in: IC50, huGROα secretion by BJ cells; rhuIL-17A (0.5 nM) of XAB5 (antibody, human IgG1, kappa, V domains shown) VH: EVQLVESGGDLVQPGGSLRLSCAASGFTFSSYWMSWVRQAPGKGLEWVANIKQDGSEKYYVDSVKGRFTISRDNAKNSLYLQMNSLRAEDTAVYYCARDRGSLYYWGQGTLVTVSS VL: AIQLTQSPSSLSASVGDRVTITCRPSQGINWELAWYQQKPGKAPKLLIYDASSLENGVPSRFSGSGSGTDFTLTISSLQPEDFATYYCQQFNSYPLTFGGGTKVEIKR is ___
**Result** 460
